Assay: Cytotoxicity against HUVEC assessed as cell viability at 100 uM after 24 hrs by MTT assay
Format: cell-based
Details: human, HUVEC cells; read-out: Activity

[
  {
    "Smiles Input": "COc1cc2oc(-c3ccc(O)cc3)cc(=O)c2c(O)c1OC",
    "viability at 24 h, 100 µM / %": 38
  },
  {
    "Smiles Input": "COc1cccc2c1C(=O)c1c(O)c3c(c(O)c1C2=O)C[C@@](O)(C(=O)CO)C[C@@H]3O[C@H]1C[C@H](N)[C@H](O)[C@H](C)O1",
    "viability at 24 h, 100 µM / %": 11.7
  }
]

* * *

Assay: Cytotoxicity against HUVEC assessed as cell viability at 3.12 uM after 24 hrs by MTT assay
Assay type: cell-based
Conditions: human, HUVEC cells; read-out: Activity
Readout Label: viability at 24 h, 3.12 µM (%)

[
  {
    "Compound": "COc1cc2oc(-c3ccc(O)cc3)cc(=O)c2c(O)c1OC [CIRSIMARITIN]",
    "Readout Label": "viability at 24 h, 3.12 µM",
    "Unit String": "%",
    "Recorded Measurement": 89.9
  },
  {
    "Compound": "COc1cccc2c1C(=O)c1c(O)c3c(c(O)c1C2=O)C[C@@](O)(C(=O)CO)C[C@@H]3O[C@H]1C[C@H](N)[C@H](O)[C@H](C)O1 [DOXORUBICIN]",
    "Readout Label": "viability at 24 h, 3.12 µM",
    "Unit String": "%",
    "Recorded Measurement": 14.2
  }
]
